# test-method-notes: NCI Yeast Anticancer Drug Screen. Data for the mec2-1 strain (AID 157)
# condition-description: S. cerevisiae mec2-1 strain, at 50.0 µM
Compounds without any hit were thinned out: in the full panel of roughly 79,000, 15% have a hit. The source made the active and inactive calls. Cut-off read from the data, not from the text of the source: active = growth inhibition above about 70%; inactive = the rest.
Permitted responses: active, inactive

Qu. Fill in: this test's call for C=CCN(N=O)C(=O)N(CCC)CCCC(NC(C)=O)C(=O)NCc1ccccc1 (stereo unspecified) is ___
Ans. inactive

Qu. Assay outcome for S=C1NC(/C=C/c2ccccc2)Nc2ccccc21 (stereo unspecified) : what was it?
Ans. active

Qu. What did the test return for `C1CCC(N=C2N(C3CCCCC3)C(=NC3CCCCC3)N2C2CCCCC2)CC1` ?
Ans. inactive

Qu. Please indicate how the test categorized `CNc1ncn(-c2c(C)cccc2C)c(=O)n1` .
Ans. inactive

Qu. Name the outcome recorded for `c1ccc(C2=C(c3ccccc3)c3ccccc3C2)cc1` in the assay.
Ans. inactive

Qu. What was the test verdict on `CCCNN(CCC)C(N)=O` ?
Ans. inactive

---

# test-method-notes: NCI Yeast Anticancer Drug Screen. Data for the sgs1 mgt1 strain (AID 161);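 note: 0% = growth of cultures given vehicle only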
# condition-description: S. cerevisiae sgs1 mgt1 strain, at 50.0 µM, active compounds read high
This is part of a sample that, as a whole, favours compounds with a hit. Of some 79,000 tested, about 15% had one in any assay.
experimental-endpoint: growth inhibition (%)
Give the quantity in %, number only.

Qu. Find the recorded growth inhibition belonging to `Cc1ccc2nc(NC(=O)OCc3ccccc3)sc2c1` and report it.
Ans. -11.8

Qu. What value of measured growth inhibition is listed for `CN(C)C=Nc1c(Br)cc(Br)c2nonc12` ?
Ans. -32.5

Qu. Please report the recorded growth inhibition for `CCCCCCC#CC(=O)O` .
Ans. 0.5

Qu. What value of measured growth inhibition is listed for `C=CCOC(=O)CC(O)(CC(=O)OCC=C)C(=O)OCC=C` ?
Ans. -11.8

Qu. Give the measured growth inhibition of CC1CCC2(CC1)NN=c1s/c(=C\c3ccc(O)cc3)c(=O)n1N2 (configuration not stated) .
Ans. -21.9

Qu. Sample `O=C(O)c1ccc(-n2cnc3c(=O)[nH]cnc32)cc1` — what was its growth inhibition?
Ans. -13.3

Qu. What measured growth inhibition goes with CC(C)(C)NCC(CN1CCOCC1)C(=O)c1ccccc1 (configuration not stated) ?
Ans. 57

Qu. May I ask what growth inhibition has been recorded for `C[n+]1cccc2c(=O)c3ccccc3oc21` ?
Ans. -6.25

Qu. Form field: reported growth inhibition of `COC(Cc1cc(C(O)(c2ccc(C(C)(C)C)cc2)c2cc(CC(OC)(c3cc(C(OC)(c4ccc(C(C)(C)C)cc4)c4ccc(C(C)(C)C)cc4)c(C)cc3C)c3cc(C(OC)(c4ccc(C(C)(C)C)cc4)c4ccc(C(C)(C)C)cc4)c(C)cc3C)c(C)cc2C)c(C)cc1C)(c1cc(C(OC)(c2ccc(C(C)(C)C)cc2)c2ccc(C(C)(C)C)cc2)c(C)cc1C)c1cc(C(OC)(c2ccc(C(C)(C)C)cc2)c2ccc(C(C)(C)C)cc2)c(C)cc1C`
Ans. 9.05

Qu. # input compound: `CCCCCCCC(=O)NN` ; wanted: its growth inhibition
Ans. -12.9

Qu. Given the entry CC1(C)CCC23CCC4(C)C(CCC5C6(C)CCC(=O)C(C)(C)C6CCC54C)C2C1OC3 (configuration not stated) , report its measured growth inhibition.
Ans. -4.05

Qu. // returns reported growth inhibition for input O=C(Cl)C(c1ccccc1)N1C(=O)c2ccccc2C1=O (configuration not stated)
Ans. 0

---

# test-method-notes: NCI Yeast Anticancer Drug Screen. Data for the bub3 strain (AID 167)
# condition-description: S. cerevisiae bub3 mutant strain, at 50.0 µM, active compounds read high
About 79,000 compounds went through this panel and 15% of them were active in at least one assay; those are over-represented in the sample as a whole. *1 amine or outer side, *2 acyl side, *3 side chain or, on linkers, in order; H or OH if unused. Where a SMILES comes first, the peptide text is derived from it. Bridges are numbered along the chain shown (N, C = ends). [ ]: non-standard residue; d: D form. The star is where a group is joined. Fmoc = O=C(OCC1c2ccccc2-c2ccccc21)*; X9 = O=C(C(CCCCNO[*:3])N[*:1])[*:2]
Would you kindly list growth inhibition for each of these molecules?
Answer in %, number only, no unit symbol.

Qu. growth inhibition lookup needed for `O=[N+]([O-])c1cc(Cl)cc2cc(Br)cnc12` , thanks.
Ans. 10.5

Qu. # input molecule: `O=C(c1cccc(Cl)c1)c1cccc2ccccc12` ; wanted: its growth inhibition
Ans. 41.9

Qu. Find the recorded growth inhibition belonging to CC(=O)OC1C=CC2Oc3ccc(C)cc3C1(C)O2 (centres undefined) and report it.
Ans. 23.6

Qu. Which value of growth inhibition has been reported for `CCCCCCCCCCCCCCCCCC(=O)Oc1ccc(OCc2ccccc2)cc1` in the records?
Ans. -11.4

Qu. Bench note: what growth inhibition did NC(=O)CNC(=O)C1CCCN1C(=O)C1CCCCNOC(=O)CCC(NC(=O)OCC2c3ccccc3-c3ccccc32)C(=O)NC(Cc2c[nH]c3ccccc23)C(=O)N1 (centres undefined) (Fmoc-EW[X9]PG-NH2; ester 1-3; configuration not given here) show?
Ans. 4.1

Qu. Which growth inhibition is listed for `O=S(=O)(Cc1ccccc1)c1ncc(Cl)cn1` ?
Ans. 16.9

Qu. Need growth inhibition of CCOC(=O)C1(C)CCC(C(C(=O)O)C(=O)O)CC1=O (centres undefined) , thanks.
Ans. 21.4

Qu. Given the molecule `CC(=O)Nc1ccc(/C=N/Nc2nc3ccccc3s2)cc1` , what is its reported growth inhibition?
Ans. 1.9

Qu. Fill in the blank: the reported growth inhibition of NC(=O)C1=CC2C3C=CC2(O)C(=O)OC3O1 (centres undefined) is ____.
Ans. -22.9

Qu. Which growth inhibition value belongs to `Cc1cnc(Sc2ncccn2)c([N+](=O)[O-])c1` ?
Ans. -31.1

Qu. // lookup growth inhibition for `CCC(=O)Cc1ccc(OC)c(OC)c1`
Ans. 9.35

Qu. What measured growth inhibition goes with COC(=O)C1c2ccccc2CC(=O)N1NC(C)=O (centres undefined) ?
Ans. 5.3

Qu. # query: growth inhibition of entry `Cc1nc2ccccc2c(Br)c1Br`
Ans. -4.05

Qu. What does the data say about its growth inhibition? Entry: `COc1ccc(CNc2nc3ccccc3nc2C(=O)O)cc1OC`
Ans. 9

Qu. Record request: growth inhibition value, item `COC(=O)c1cc(C(=O)OC)c(C/C(=N/Nc2ccc([N+](=O)[O-])cc2[N+](=O)[O-])C(=O)Nc2cccc(C(F)(F)F)c2)nc1C/C(=N/Nc1ccc([N+](=O)[O-])cc1[N+](=O)[O-])C(=O)Nc1cccc(C(F)(F)F)c1`
Ans. 37.9

Qu. State the recorded growth inhibition for this entry: `COC(=O)C1(Br)c2ccccc2-c2ccccc21`
Ans. 8.5

Qu. # get_value(readout='growth inhibition', item= COc1ccc(N)c(C(O)CCNC(C)=O)c1 (centres undefined) )
Ans. -43.5

Qu. Dear colleague, I am looking for the recorded growth inhibition of the following molecule: `CCOc1cc2c(cc1OC)c[n+](C)c1c3cc(OC)c(OC)cc3ccc21`
Ans. -6.05

Qu. Given the entry `CN(C)c1ccc(/C=C(/C(=O)O)c2csc(-c3nc(/C(=C\c4ccc(N(C)C)cc4)C(=O)O)cs3)n2)cc1` , report its measured growth inhibition.
Ans. 13.2

Qu. Bench note: what growth inhibition did `COc1ccc(N=Cc2cc(Cl)cc(Cl)c2OC(=O)c2ccccc2)cc1` show?
Ans. -13.6

Qu. Any idea what growth inhibition was measured for CC(=O)NC(C(=O)N1CCCC1C(=O)O)C(C)C (stereo not drawn) (Ac-Val-Pro-OH; configuration not given here) ?
Ans. -19.1

Qu. Request the reported growth inhibition associated with `O=c1c2cc(S(=O)(=O)Nc3ccc(Cl)cc3Cl)ccc2ncn1NS(=O)(=O)c1cccc2ccccc12`
Ans. 8.85

Qu. If you can, please state the reported growth inhibition value of `C[C@]12CC[C@@H]3c4ccc(OCCCO)c([N+](=O)[O-])c4CC[C@H]3[C@@H]1CCC2=O` .
Ans. -0.5

Qu. Suppose we examine the molecule `O=[N+]([O-])c1ccc2c3c(ccc([N+](=O)[O-])c13)CC2` ; what growth inhibition value has been reported?
Ans. -18.4

Qu. growth inhibition lookup needed for `O=C(CC(=O)n1nc(-c2ccccc2)c(N=Nc2ccccc2Cl)c1-c1ccccc1)Nc1ccc(Cl)cc1` , thanks.
Ans. -18.7

Qu. I would be grateful if you could share the reported growth inhibition for `N#CC(C#N)CN(C1=NCCO1)c1cccc2c1CCCC2` .
Ans. -12.4

Qu. Item under review: `CC(=O)[C@H]1CC[C@H]2[C@@H]3CC(=O)C4=CC(=O)CC[C@]4(C)[C@H]3C(=O)C[C@]12C` . Reported growth inhibition?
Ans. 0.45

Qu. Given the entry S=C(N/N=C/c1ccc(Cl)cc1Cl)NC1CCc2ccccc21 (centres undefined) , report its measured growth inhibition.
Ans. -7.95

Qu. # lookup: growth inhibition of `CCc1nc(-c2ccccc2)nc2c1nc(-c1ccc(C)cc1)n2Nc1ccccc1`
Ans. -4.45

Qu. For the molecule CC(=O)N1N=C(c2ccc(OCC(O)CN3CCN(CC(O)COc4ccc(C5=NN(C(C)=O)C(c6ccccc6)C5)cc4)CC3)cc2)CC1c1ccccc1 (centres undefined) , what growth inhibition is on record?
Ans. -25.9

Qu. Query: growth inhibition; subject: CC[C@H]1OC(=O)[C@H](C)[C@@H](OC2CC(C)(OC)C(O)C(C)O2)[C@H](C)[C@@H](OC2OC(C)CC(N(C)C)C2OC(=O)CCC2CCCC2)[C@](C)(O)C[C@@H](C)C(=O)[C@H](C)[C@@H](O)[C@]1(C)O (some centres undefined)
Ans. 7.3

Qu. Suppose we examine the molecule CC1(C)OC2COC(CNS(C)(=O)=O)C2O1 (centres undefined) ; what growth inhibition value has been reported?
Ans. 2.85

Qu. Reported growth inhibition for `NNC(=O)N/N=C/c1cccc(O)c1` : what is it?
Ans. 1.1

Qu. State the recorded growth inhibition for this entry: O=C(Nc1ccc(Br)cc1)C(=O)C(C(=O)c1ccccc1F)C1OC(=O)c2ccccc21 (centres undefined)
Ans. -5.4

Qu. Would you mind telling me what growth inhibition value was observed for Cc1ccc(N=C2N=C(N3CC(C)OC(C)C3)c3ccccc32)cc1 (centres undefined) ?
Ans. 0

Qu. For the molecule shown here, `Cc1ccc(N=Nc2c(O)c(C(=O)O)cc3ccccc23)c(S(=O)(=O)O)c1` , give the reported growth inhibition.
Ans. 5.9

Qu. Returns the measured growth inhibition for the input molecule. Input: CCCCCCCCC(O)C(O)CCCCCCCCOC(=O)CCCCCCCCCCC(O)CCCCCC (centres undefined)
Ans. -2.1

Qu. If you can, please state the reported growth inhibition value of CCC(C)C(N)C(=O)N1CCCC1C(=O)O (stereo not drawn) (H-Ile-Pro-OH; configuration not given here) .
Ans. -2.45

Qu. GET /values?readout=growth inhibition&item= `CSc1cnc(N)s1`
Ans. -2.45

Data provenance is PubChem BioAssay (NCI).
